# Test system: SK-MEL-5
# ASSAY PROTOCOL: NCI tumour cell line growth inhibition, 48 h
Active and inactive are the calls of the source. Rule as the data show it: active = GI50 up to about 1.1 µM and inactive = higher. Non-standard residues stand in square brackets, D forms with d. Residues, ends and D or L forms follow the SMILES beside them. *: point of attachment. hSer = N[CH](CCO)C(=O)O; Boc = CC(C)(C)OC(=O)*
Log the outcome using a class from active, inactive

Examples with answers:
O=C1/C(=C/c2ccc(Cl)cc2)Oc2cc(O)ccc21 [6-HYDROXY-4'-CHLORO AURONE] :: inactive
CC(C)C1(O)C(=O)N(c2c(F)c(F)c(F)c(F)c2F)C(=S)N1CCSc1ccccc1 (stereo not drawn) :: inactive
O=C(NNc1ccc([N+](=O)[O-])cc1)C1OC(CO)C(O)C1O (stereo not drawn) :: inactive
COc1cc2c(cc1OC)C1c3ccccc3C(C#N)(C2)N(C(=O)c2ccccc2)C1O (stereo not drawn) :: inactive
COc1ccc(/C(Cl)=C(\C=O)c2ccc(OC)c(OC)c2)cc1 :: inactive

Just curious, what result did COCCC(NC(=O)C(CC(C)C)NC(=O)OC(C)(C)C)C(N)=O (stereo not drawn) (Boc-Leu-[hSer](Me)-NH2; configuration not given here) get here? inactive

Just curious, what result did COC(=O)c1cc2c3c(cc(N(C)C)c2[nH]1)N(C(=O)c1cc2cc(OC)c(OC)c(OC)c2[nH]1)CC3CCl (stereo not drawn) get here? active

Just curious, what result did `C=C1C(=O)O[C@H]2[C@H]3O[C@@H](C[C@@H]12)[C@](C)(O)CCCC(C)=CCC[C@H]3C` get here? inactive

Just curious, what result did `CSc1ncc2c(n1)-c1ccccc1OC2` get here? inactive

Just curious, what result did CC1NOC(=O)C1/N=N/c1ccccc1Br (stereo not drawn) get here? inactive

Just curious, what result did CC12CCC([C@H](C(O)C3CCCCC3)C1=O)C2(C)C (stereo partly drawn) get here? inactive

Just curious, what result did `NS(=O)(=O)c1ccc(NCc2cnc3ccccc3c2)cc1` get here? inactive

Just curious, what result did `C[C@@H]1CC(=O)C[C@@H]2CC[C@H]3[C@@H]4CC[C@H](OC(=O)c5cccc6cc7ccccc7nc56)[C@H]4CC[C@@H]3[C@H]21` get here? inactive
